assay: Solubility by HPLC in approximately 0.1N HCl medium; format: physicochemical; conditions: simulated gastric fluid, thermodynamic from solid, HPLC technique
READOUT KIND: solubility

Briefly, solubility measured for COc1ccc(-c2c(Cl)ncn2-c2ccc(S(N)(=O)=O)cc2)cc1F : 3.1 µg/mL
